PROTOCOL_SUMMARY: Water solubility, HPLC with external standard
Type: physicochemical
READOUT_LABEL: solubility (µg/mL)

{"MOLECULE": "COc1ccc2cccc(CCNC(C)=O)c2c1 [Agomelatine]", "READOUT_LABEL": "solubility", "UNIT_ABBREV": "µg/mL", "READOUT_NUMBER": 1110}
